Ref: patent US10221163B2

Molecular target: VIM-1 (Pseudomonas aeruginosa (strain ATCC 15692 / DSM 22644 / CIP 104116 / JCM 14847 / LMG 12228 / 1C / PRS 101 / PAO1))
Assay: biochemical
Conditions: fluorescence assay, CCF2-FA substrate, 30 pM enzyme, 2 hours at 25° C.; read-out: VIM-1 IC50
endpointLabel: IC50 (pM)
Just the number please, in pM, no unit attached.

(Q) Give its IC50 value. Item: Cn1c(N)nc2c(-c3ccc(S(=O)(=O)N[C@H]4CCNC4)c(S(N)(=O)=O)c3-c3nn[nH]n3)cccc21 [Example 163]
(A) 118

(Q) Give its IC50 value. Item: NCC1CN(S(=O)(=O)c2ccc(-c3cccc4sc(N)nc34)c(-c3nnn[nH]3)c2S(N)(=O)=O)CCO1.O=C(O)C(F)(F)F (stereo not drawn) [Example 104, 2,2,2-trifluoroacetate]
(A) 1590

(Q) Give its IC50 value. Item: NCC(CO)(CO)NS(=O)(=O)c1ccc(-c2cccc3[nH]c(N)nc23)c(-c2nn[nH]n2)c1S(N)(=O)=O [Example 247]
(A) 149

(Q) Give its IC50 value. Item: C[C@H](N)CNS(=O)(=O)c1ccc(-c2ccc(N)nc2)c(-c2nn[nH]n2)c1S(N)(=O)=O [Example 479]
(A) 299

(Q) Give its IC50 value. Item: NCc1nc2cc(-c3ccc(S(=O)(=O)N[C@@H](CN)CO)c(S(N)(=O)=O)c3-c3nn[nH]n3)ccc2[nH]1 [Example 474]
(A) 141

(Q) Give its IC50 value. Item: CN([C@H]1CCNC1)S(=O)(=O)c1ccc(-c2cccc3sc(N)nc23)c(-c2nnn[nH]2)c1S(N)(=O)=O [Example 65]
(A) 1430

---

Give IC50 for every item shown.
Target: VIM-1 (Pseudomonas aeruginosa (strain ATCC 15692 / DSM 22644 / CIP 104116 / JCM 14847 / LMG 12228 / 1C / PRS 101 / PAO1), UniProt A0A0F7KYQ8)
Test: biochemical
Details: fluorescence assay, CCF2-FA substrate, 30 pM enzyme, 2 hours at 25° C.; read-out: VIM-1 IC50
Just the number please, in nM, no unit attached.

(Q) Give its IC50 value. Item: Nc1ncccc1-c1ccc(S(=O)(=O)NC[C@@H](N)CO)c(S(N)(=O)=O)c1-c1nn[nH]n1 [Example 214]
(A) 0.732

(Q) Give its IC50 value. Item: C[C@H](CCN)NS(=O)(=O)c1ccc(-c2cccc3[nH]c(N)nc23)c(-c2nn[nH]n2)c1S(N)(=O)=O [Example 266]
(A) 0.115

(Q) Give its IC50 value. Item: NCCCNS(=O)(=O)c1ccc(-c2cccc3sc(N)nc23)c(-c2nnn[nH]2)c1S(N)(=O)=O.O=C(O)C(F)(F)F [Example 90, 2,2,2-trifluoroacetate]
(A) 0.27

(Q) Give its IC50 value. Item: NCCNS(=O)(=O)c1ccc(-c2cccc3[nH]c([C@@H](N)CN)nc23)c(-c2nn[nH]n2)c1S(N)(=O)=O [Example 336]
(A) 0.233

(Q) Give its IC50 value. Item: Nc1nc2c(-c3ccc(S(=O)(=O)N4CCC(CO)CC4)c(S(N)(=O)=O)c3-c3nnn[nH]3)cccc2s1 [Example 25]
(A) 4.52

(Q) Give its IC50 value. Item: Nc1nc2c(-c3ccc(S(=O)(=O)NC4CCc5nccn5C4)c(S(N)(=O)=O)c3-c3nnn[nH]3)cccc2s1 (centres unmarked) [Example 35]
(A) 0.256

(Q) Give its IC50 value. Item: Nc1nc2c(-c3ccc(S(=O)(=O)N4CCNCC4)c(S(N)(=O)=O)c3-c3nn[nH]n3)cccc2o1 [Example 159]
(A) 0.51

(Q) Give its IC50 value. Item: CN1CC(N(C)S(=O)(=O)c2ccc(-c3cccc4sc(N)nc34)c(-c3nnn[nH]3)c2S(N)(=O)=O)C1.O=C(O)C(F)(F)F [Example 107, 2,2,2-trifluoroacetate]
(A) 1.69

(Q) Give its IC50 value. Item: NCCNC(=O)c1cc(-c2ccc(S(=O)(=O)NCCN)c(S(N)(=O)=O)c2-c2nn[nH]n2)ccc1N [Example 451]
(A) 0.557

(Q) Give its IC50 value. Item: NC(=O)c1nc2c(-c3ccc(S(=O)(=O)N[C@H]4CCNC4)c(S(N)(=O)=O)c3-c3nn[nH]n3)cccc2[nH]1 [Example 292]
(A) 0.146

(Q) Give its IC50 value. Item: N#Cc1cccc(-c2ccc(S(=O)(=O)N[C@@H]3CCNC3)c(S(N)(=O)=O)c2-c2nnn[nH]2)c1N [Example 132]
(A) 0.124

(Q) Give its IC50 value. Item: NS(=O)(=O)c1c(S(=O)(=O)N[C@@H]2CCNC2)ccc(-c2ccc3nonc3c2)c1-c1nnn[nH]1 [Example 133]
(A) 0.118

(Q) Give its IC50 value. Item: Nc1ccc(-c2ccc(S(=O)(=O)NCC3(O)CNC3)c(S(N)(=O)=O)c2-c2nn[nH]n2)cn1 [Example 495]
(A) 0.301

(Q) Give its IC50 value. Item: NCc1nc2cc(-c3ccc(S(=O)(=O)N[C@@H](CN)CO)c(S(N)(=O)=O)c3-c3nn[nH]n3)ccc2s1 [Example 475]
(A) 0.0869
